# key: entry, value: self-cleavage
B1: HDV Ribozyme (parent)
chain: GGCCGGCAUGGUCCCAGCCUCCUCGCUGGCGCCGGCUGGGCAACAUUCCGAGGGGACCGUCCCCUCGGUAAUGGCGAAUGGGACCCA

- Variants of: B1
- Test Protocol: self-cleavage, relative activity (ratio to wild type); higher = more cleavage; co-transcriptional
Recorded Metric: self-cleavage

{"columns": ["Change", "Recorded Measurement"],
 "data": [
  ["G38U G50C", 0.225],
  ["G38C C66G", 0.203],
  ["C32G C33U", 0.115],
  ["G10A G29U", 0.0275],
  ["U47G G53U", 0.973],
  ["G50A G68C", 0.631],
  ["G10A C41A", 0.604],
  ["C3U G34C", 0.182],
  ["C13G U79C", 0],
  ["C14U G81A", 1.32],
  ["C21U C61A", 0.176],
  ["U37G A70C", 0.312],
  ["U9C C36U", 0.682],
  ["U9A G52C", 1.16],
  ["A8G U47A", 1.05],
  ["G2C A77U", 0.119],
  ["C13U C36A", 0.132],
  ["C19A U47C", 0.148],
  ["U20G G29C", 0],
  ["U9C G10C", 0.767],
  ["A16U A51U", 0.914],
  ["C48G C85U", 0.831]
]}
